Values compiled from ChEMBL document CHEMBL1137845.

Target: 5-hydroxytryptamine receptor 2A (Homo sapiens, UniProt P28223)
Sequence (P28223 whole entry): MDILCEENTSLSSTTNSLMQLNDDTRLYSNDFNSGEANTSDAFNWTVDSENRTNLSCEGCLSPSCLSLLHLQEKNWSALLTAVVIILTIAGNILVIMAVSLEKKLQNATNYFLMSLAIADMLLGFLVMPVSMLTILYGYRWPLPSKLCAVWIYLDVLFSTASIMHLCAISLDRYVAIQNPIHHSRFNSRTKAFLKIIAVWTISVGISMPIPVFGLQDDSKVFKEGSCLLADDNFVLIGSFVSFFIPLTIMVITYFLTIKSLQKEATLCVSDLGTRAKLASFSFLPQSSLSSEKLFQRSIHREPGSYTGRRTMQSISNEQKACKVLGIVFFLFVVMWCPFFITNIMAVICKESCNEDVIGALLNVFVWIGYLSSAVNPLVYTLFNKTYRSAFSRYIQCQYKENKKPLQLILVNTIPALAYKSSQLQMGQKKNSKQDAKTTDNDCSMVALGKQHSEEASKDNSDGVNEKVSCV
pKi: −log10 of the molar value.
Values of pKi greater than or equal to 6 map to Condition met; values below map to Condition not met.

Worked examples follow.
| Compound | Assayed Target | Cat |
| --- | --- | --- |
| N#Cc1cccc(NC(=O)NCCCN2CCC(Cc3ccc(F)cc3)CC2)c1 | 5-hydroxytryptamine receptor 2A (Homo sapiens, UniProt P28223) | Condition met |
| N#Cc1cccc(NC(=O)NCCCN2CCCC(Cc3ccccc3)C2)c1 (stereo unspecified) | 5-hydroxytryptamine receptor 2A (Homo sapiens, UniProt P28223) | Condition not met |
| CC(=O)c1cccc(NC(=O)NCCCN2CCC(Cc3ccc(F)cc3)CC2)c1 | 5-hydroxytryptamine receptor 2A (Homo sapiens, UniProt P28223) | Condition met |

**Query** Determine whether this compound has pKi no lower than 6: N#Cc1cccc(NC(=O)NCCCN2CCC(Cc3ccc(F)cc3)C2)c1 (stereo unspecified)
**Result** Condition met
